Below, each of the binders is paired with its reported kon value.
TARGET DESC: T1, human IL-33 (R&D Systems, #3625-IL-010/CF) (human) (UniProt O95760)
T1 sequence (looked up): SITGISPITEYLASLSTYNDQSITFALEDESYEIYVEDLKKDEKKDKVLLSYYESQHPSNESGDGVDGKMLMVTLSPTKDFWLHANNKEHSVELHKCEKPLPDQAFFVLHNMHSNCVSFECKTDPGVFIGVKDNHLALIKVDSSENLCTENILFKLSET
PROCEDURE SUMMARY: SPR Biacore T200, 25 C
Give just the numeric value; M⁻¹ s⁻¹ need not be written.

H4H9660P (antibody, from another filing, IgG4, V domains shown) VH: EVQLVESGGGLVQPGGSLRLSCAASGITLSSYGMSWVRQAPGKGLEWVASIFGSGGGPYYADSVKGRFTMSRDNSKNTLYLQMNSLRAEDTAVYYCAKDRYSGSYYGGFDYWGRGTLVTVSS VL: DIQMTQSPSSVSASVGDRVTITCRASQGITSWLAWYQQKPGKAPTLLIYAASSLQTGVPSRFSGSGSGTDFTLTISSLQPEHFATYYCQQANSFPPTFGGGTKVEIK	581000
H4H9670P (antibody, from another filing, IgG4, V domains shown) VH: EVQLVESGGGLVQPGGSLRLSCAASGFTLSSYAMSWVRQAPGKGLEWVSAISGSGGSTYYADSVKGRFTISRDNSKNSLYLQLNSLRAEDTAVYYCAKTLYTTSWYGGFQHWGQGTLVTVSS VL: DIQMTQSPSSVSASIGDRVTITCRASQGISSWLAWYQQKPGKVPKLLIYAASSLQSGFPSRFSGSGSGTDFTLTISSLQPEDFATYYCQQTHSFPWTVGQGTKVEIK	680000

Turning now to a further record.
Challenge: # query: kon of entry H4H9672P (antibody, from another filing, IgG4, V domains shown) VH: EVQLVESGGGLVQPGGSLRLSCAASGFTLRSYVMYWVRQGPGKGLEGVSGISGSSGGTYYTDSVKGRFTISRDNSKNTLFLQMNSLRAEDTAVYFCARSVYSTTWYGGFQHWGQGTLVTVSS VL: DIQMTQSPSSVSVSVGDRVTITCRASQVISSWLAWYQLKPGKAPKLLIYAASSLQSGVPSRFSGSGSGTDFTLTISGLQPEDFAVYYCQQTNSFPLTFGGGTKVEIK
Response given: 960000

Origin of the recorded values: patent US20190092852A1
